From: patent US20220144775A1

system tested: LATS1 (Homo sapiens)
Construct: purchased Carna Biosciences
Sequence (O95835 whole entry): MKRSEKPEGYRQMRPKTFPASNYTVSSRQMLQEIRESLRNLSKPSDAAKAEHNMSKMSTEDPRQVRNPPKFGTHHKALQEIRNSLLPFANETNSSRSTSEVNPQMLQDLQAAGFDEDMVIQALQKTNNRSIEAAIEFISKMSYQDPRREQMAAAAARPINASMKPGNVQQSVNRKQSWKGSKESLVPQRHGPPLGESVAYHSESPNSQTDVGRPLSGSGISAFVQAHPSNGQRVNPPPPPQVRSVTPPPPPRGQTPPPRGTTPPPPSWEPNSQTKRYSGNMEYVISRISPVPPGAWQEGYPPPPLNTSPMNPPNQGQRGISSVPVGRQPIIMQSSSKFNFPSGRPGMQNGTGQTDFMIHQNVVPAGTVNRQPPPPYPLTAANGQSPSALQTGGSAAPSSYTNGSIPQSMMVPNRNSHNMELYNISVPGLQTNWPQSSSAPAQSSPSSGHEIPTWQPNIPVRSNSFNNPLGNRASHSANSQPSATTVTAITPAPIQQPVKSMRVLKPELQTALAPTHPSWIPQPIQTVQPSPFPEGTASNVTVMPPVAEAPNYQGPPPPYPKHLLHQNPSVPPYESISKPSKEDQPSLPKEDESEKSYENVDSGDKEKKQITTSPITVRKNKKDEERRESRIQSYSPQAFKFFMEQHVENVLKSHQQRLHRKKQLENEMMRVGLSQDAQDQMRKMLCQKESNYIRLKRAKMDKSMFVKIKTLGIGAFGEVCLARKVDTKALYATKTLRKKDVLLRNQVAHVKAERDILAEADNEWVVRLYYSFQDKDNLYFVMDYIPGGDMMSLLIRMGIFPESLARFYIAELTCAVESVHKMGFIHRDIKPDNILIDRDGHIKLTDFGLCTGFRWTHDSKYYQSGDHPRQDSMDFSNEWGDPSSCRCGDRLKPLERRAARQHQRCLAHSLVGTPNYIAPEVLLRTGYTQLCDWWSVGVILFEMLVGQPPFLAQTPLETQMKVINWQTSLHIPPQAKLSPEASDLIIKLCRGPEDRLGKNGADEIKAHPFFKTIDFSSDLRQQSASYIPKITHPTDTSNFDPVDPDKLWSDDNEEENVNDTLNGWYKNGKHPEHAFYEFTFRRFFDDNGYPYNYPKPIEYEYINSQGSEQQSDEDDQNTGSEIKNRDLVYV
assay name: Kinase inhibitory activity against LATS1 (ADP quantification)
Format: biochemical
measurement setup: final concentration 1000 nM; ATP 400 μM; read-out: kinase inhibitory rate
Property: inhibition at 1 µM; scope: individual compounds

Req: Please look at this compound and report its inhibition at 1 µM: CC/C(=N\NC(=O)[C@@H](C)Nc1ccc2cccnc2c1)c1ccc(O)c(C)c1O
Resp: ≥ 40%

Req: Look up inhibition at 1 µM of CC/C(=N\NC(=O)C(C)Nc1cccnc1)c1ccc(O)c(C)c1O (stereo not drawn) and report it.
Resp: ≥ 40%

Req: Note inhibition at 1 µM for the compound shown: CC/C(=N\NC(=O)NCc1cccnc1)c1ccc(O)c(C)c1O
Resp: ≥ 40%

Req: Fill in inhibition at 1 µM for record CC/C(=N\NC(=O)C(C)Oc1cccnc1)c1ccc(O)c(C)c1O (stereo not drawn)
Resp: ≥ 40%

Req: Provide measured inhibition at 1 µM value, entry: CC/C(=N\NC(=O)[C@@H](C)Nc1cncnc1)c1ccc(O)c(C)c1O
Resp: ≥ 40%

Others:
Req: Provide measured inhibition at 1 µM value, entry: CC/C(=N\NC(=O)CNc1ccccn1)c1ccc(O)c(C)c1O
Resp: ≥ 40%

----------
Test system: YAP
assay name: YAP phosphorylation inhibitory action in SKOV3 (HTRF)
Assay type: cell-based, human
measurement setup: 2D culture conditions; 10 μM; 1 hr; non-treatment 100%
metric: phosphorylated YAP amount (%)
Number only, in %; omit the unit.

Req: Tell me phosphorylated YAP amount (%) reported for CC/C(=N\NC(=O)[C@@H](C)Nc1ccc(Cl)nc1)c1ccc(O)c(C)c1O [A-012]
Resp: 19

Continuing:
Req: // fetch phosphorylated YAP amount (%) given entry CC/C(=N\NC(=O)CNc1cccnc1)c1ccc(O)c(C)c1O [A-002]
Resp: 50

Req: Give the reported phosphorylated YAP amount (%) for this molecule. CC/C(=N\NC(=O)[C@@H](C)Nc1cncc(C(F)(F)F)c1)c1ccc(O)c(C)c1O [A-013]
Resp: 42

Req: Read the entry CC/C(=N\NC(=O)C(CC)Nc1cccnc1)c1ccc(O)c(C)c1O (centres unmarked) [A-005] and write its reported phosphorylated YAP amount (%).
Resp: 27

Req: Recall and state the measured phosphorylated YAP amount (%) for CC/C(=N\NC(=O)[C@@H](C)Nc1cncc(F)c1)c1ccc(O)c(C)c1O [A-007R] .
Resp: 8

----------
System: YAP
assay name: YAP phosphorylation inhibitory action in SKOV3 (HTRF)
Format: cell-based, human
measurement setup: 2D culture conditions; 10 μM; 1 hr; non-treatment 100%
metric: phosphorylated YAP amount (%)
Your answer is read as %, so omit the unit and give the number.

Req: Quote phosphorylated YAP amount (%) reported for CC/C(=N\NC(=O)[C@@H](C)Nc1ccc(F)nc1)c1ccc(O)c(C)c1O [A-010] please.
Resp: 11

Req: Please give measured phosphorylated YAP amount (%) of the following entry: CC/C(=N\NC(=O)[C@@H](C)Nc1cncc(Cl)c1)c1ccc(O)c(C)c1O [A-011]
Resp: 46

Req: Fill in phosphorylated YAP amount (%) for record CC/C(=N\NC(=O)C(C)Nc1cccnc1)c1ccc(O)c(C)c1O (centres unmarked) [A-004]
Resp: 19

---
Req: Please give measured phosphorylated YAP amount (%) of the following entry: CC/C(=N\NC(=O)C(C)Nc1cccnc1)c1ccc(O)c(C)c1O (single isomer, unassigned) [A-004A]
Resp: 14

Req: Answer with the recorded phosphorylated YAP amount (%) of CC/C(=N\NC(=O)C(C)Nc1cncc(F)c1)c1ccc(O)c(C)c1O (centres unmarked) [A-007] only.
Resp: 16
